experiment: Oral bioavailability in Sprague-Dawley rat at 1 mg/kg
Type: ADME, organism-based
condition-parameters: in vivo
Measured bioavailability accompanies every entry in the list below.
Use % as the unit, but write only the number.

Please review the following examples before continuing.
CC(C)(C)c1ccc(S(=O)(=O)N2Cc3ccc(C(F)(F)F)nc3Nc3cccc(-c4noc(CO)n4)c32)cc1; 29
C[C@H](O)c1nc(-c2cccc3c2N(S(=O)(=O)c2ccc(C(C)(C)C)cc2)Cc2ccc(C(F)(F)F)nc2N3)no1; 14
CC(C)(O)c1nc(-c2cccc3c2N(S(=O)(=O)c2ccc(C(F)(F)F)cc2)Cc2ccc(C(F)(F)F)nc2N3)no1; 100
CC(C)(C)c1ccc(S(=O)(=O)N2Cc3ccc(C(F)(F)F)nc3Nc3cccc(-c4noc(C(C)(C)O)n4)c32)cc1; 14

Using known records, supply bioavailability for C[C@@H](O)c1nc(-c2cccc3c2N(S(=O)(=O)c2ccc(C(C)(C)C)cc2)Cc2ccc(C(F)(F)F)nc2N3)no1
11

Return reported bioavailability. Input compound: CC(C)c1ccc(S(=O)(=O)N2Cc3ccc(C(F)(F)F)nc3Nc3cccc(-c4noc(C(C)(C)O)n4)c32)cc1
8

---

assay-system: Bombesin receptor subtype-3 (Homo sapiens)
Sequence (P32247 whole entry): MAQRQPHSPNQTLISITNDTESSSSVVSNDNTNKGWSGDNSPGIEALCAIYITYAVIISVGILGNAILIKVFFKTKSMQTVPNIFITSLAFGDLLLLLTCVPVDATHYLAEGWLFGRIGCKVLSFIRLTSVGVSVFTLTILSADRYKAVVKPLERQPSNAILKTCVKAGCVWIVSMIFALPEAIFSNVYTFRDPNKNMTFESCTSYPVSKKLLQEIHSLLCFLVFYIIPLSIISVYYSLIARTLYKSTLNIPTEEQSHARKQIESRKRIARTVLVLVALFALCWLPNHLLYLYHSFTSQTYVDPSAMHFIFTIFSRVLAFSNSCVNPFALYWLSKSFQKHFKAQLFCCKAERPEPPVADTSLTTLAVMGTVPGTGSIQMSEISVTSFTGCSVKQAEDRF
experiment: Agonist activity at human BRS-3 expressed in HEK293AEQ cells assessed as bioluminescence for 10 mins by aequorin bioluminescence assay
endpoint: EC50 (nM)
Kindly answer with a numeric value in nM, unit omitted.

Examples from the recorded data:
CC(C)(C)c1ccc(S(=O)(=O)N2Cc3ccc(C(F)(F)F)nc3Nc3cccc(C4CCNCC4)c32)cc1; 114
CC(C)(C)c1ccc(S(=O)(=O)N2Cc3ccc(C(F)(F)F)nc3Nc3cccc(-c4noc(=O)[nH]4)c32)cc1; 77
CC(C)(C)c1ccc(S(=O)(=O)N2Cc3ccc(C(F)(F)F)nc3Nc3cccc(-c4noc(C(C)(C)O)n4)c32)cc1; 52

Moving on to another compound below.
Find the measured EC50 of CC(C)(C)c1ccc(S(=O)(=O)N2Cc3ccc(C(F)(F)F)nc3Nc3cccc(-c4noc(CO)n4)c32)cc1 and report it.
56

---

// reported Activity per item
assay-system: Bombesin receptor subtype-3 (Mus musculus)
Sequence (whole entry): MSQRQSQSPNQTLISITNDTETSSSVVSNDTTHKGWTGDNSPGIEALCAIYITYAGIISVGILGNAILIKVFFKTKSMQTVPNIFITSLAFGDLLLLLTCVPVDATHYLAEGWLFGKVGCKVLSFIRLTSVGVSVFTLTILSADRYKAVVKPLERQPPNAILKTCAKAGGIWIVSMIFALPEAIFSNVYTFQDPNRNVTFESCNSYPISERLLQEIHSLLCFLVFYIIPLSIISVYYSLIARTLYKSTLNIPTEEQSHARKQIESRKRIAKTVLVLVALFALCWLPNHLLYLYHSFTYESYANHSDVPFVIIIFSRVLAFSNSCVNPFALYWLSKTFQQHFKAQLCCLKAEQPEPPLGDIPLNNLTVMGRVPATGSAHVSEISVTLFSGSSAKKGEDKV
experiment: Agonist activity at mouse BRS-3 expressed in HEK293AEQ cells assessed as bioluminescence for 10 mins by aequorin bioluminescence assay relative to dY-peptide
Type: functional, cell-based
Write the value in % as a bare number.

Reference set (5 entries):
CC(C)(C)c1ccc(S(=O)(=O)N2Cc3ccc(C(F)(F)F)nc3Nc3cccc(-c4ncon4)c32)cc1; 116
CC(C)(C)c1ccc(S(=O)(=O)N2Cc3ccc(C(F)(F)F)nc3Nc3cccc(-c4noc(=O)[nH]4)c32)cc1; 105
CC(C)(O)c1nc(-c2cccc3c2N(S(=O)(=O)c2ccc(OC(F)(F)F)cc2)Cc2ccc(C(F)(F)F)nc2N3)no1; 106
CC(C)(O)c1nc(-c2cccc3c2N(S(=O)(=O)c2ccc(C(F)(F)F)cc2)Cc2ccc(C(F)(F)F)nc2N3)no1; 97
CC(C)(C)c1ccc(S(=O)(=O)N2Cc3ccc(C(F)(F)F)nc3Nc3cccc(-c4noc(C(C)(C)O)n4)c32)cc1; 117

In one line, give reported Activity of the entry C[C@H](O)c1nc(-c2cccc3c2N(S(=O)(=O)c2ccc(C(C)(C)C)cc2)Cc2ccc(C(F)(F)F)nc2N3)no1 .
109

Look up and state reported Activity for CC(C)c1ccc(S(=O)(=O)N2Cc3ccc(C(F)(F)F)nc3Nc3cccc(-c4noc(C(C)(C)O)n4)c32)cc1
114

Read off the recorded Activity for C[C@@H](O)c1nc(-c2cccc3c2N(S(=O)(=O)c2ccc(C(C)(C)C)cc2)Cc2ccc(C(F)(F)F)nc2N3)no1
112

Using known records, supply Activity for CC(C)(C)c1ccc(S(=O)(=O)N2Cc3ccc(C(F)(F)F)nc3Nc3cccc(-c4cccnc4)c32)cc1
105

Tell us which Activity value is on record for Cn1cc(-c2cccc3c2N(S(=O)(=O)c2ccc(C(C)(C)C)cc2)Cc2ccc(C(F)(F)F)nc2N3)cn1
110

Recall and state the measured Activity for CC(C)(O)c1nc(-c2cccc3c2N(S(=O)(=O)c2ccc(OC(F)F)cc2)Cc2ccc(C(F)(F)F)nc2N3)no1 .
94

Please list Activity recorded for the compound CC(C)(C)c1ccc(S(=O)(=O)N2Cc3ccc(C(F)(F)F)nc3Nc3cccc(-c4noc(CO)n4)c32)cc1
114

State, in one line, measured Activity of CC(C)(C)c1ccc(S(=O)(=O)N2Cc3ccc(C(F)(F)F)nc3Nc3cccc(C4CCNCC4)c32)cc1
129
